tested on: 188146-221-R-J1-PDC complex spheroid viability; assay: Anticancer human tumor 188146-221-R-J1-PDC patient-derived colon adenocarcinoma cell line growth inhibition [POLQ]; conditions: second compound 0.0316 µM; first compound 0.0316 µM; hits give low values
quantity_kind: viability, T/C (%)
Give the quantity in %, number only.

1) CC1COCCN1c1cc(-c2ccnn2C)c2ccnc(-c3ccn[nH]3)c2n1 (stereo not given) + Nc1ccc(C#CCN(C(=O)Cc2ncc(C(F)(F)F)cc2C(F)(F)F)c2ccc(F)cc2)nn1 : 84.9
2) COc1cc(C2c3cc4c(cc3C(OC3OC5COC(C)OC5C(O)C3O)C3COC(=O)C23)OCO4)cc(OC)c1O (stereo not given) + Cc1cccc(N(C)C(=O)C2C(O)CCN2c2nc(C)cc(C(F)(F)F)c2C#N)c1 : 115
3) CC[C@@]1(O)C(=O)OCc2c1cc1n(c2=O)Cc2cc3c(CN(C)C)c(O)ccc3nc2-1 + Cc1cccc(N(C)C(=O)C2C(O)CCN2c2nc(C)cc(C(F)(F)F)c2C#N)c1 : 98.1

Q: Entry C=CCn1c(=O)c2cnc(Nc3ccc(N4CCN(C)CC4)cc3)nc2n1-c1cccc(C(C)(C)O)n1 + Nc1ccc(C#CCN(C(=O)Cc2ncc(C(F)(F)F)cc2C(F)(F)F)c2ccc(F)cc2)nn1 , system 188146-221-R-J1-PDC complex spheroid viability: what viability, T/C was measured?
Result: 98.6

Q: Repeat with O=C(c1cc(Cc2n[nH]c(=O)c3ccccc23)ccc1F)N1CCN(C(=O)C2CC2)CC1 + Cc1cccc(N(C)C(=O)C2C(O)CCN2c2nc(C)cc(C(F)(F)F)c2C#N)c1
Result: 109

Q: Repeat with COc1ccc([C@@H](O)c2cc(-c3ncnc4cc(N5CCOCC5)ccc34)c(F)cc2Cl)nn1 + Nc1ccc(C#CCN(C(=O)Cc2ncc(C(F)(F)F)cc2C(F)(F)F)c2ccc(F)cc2)nn1
Result: 103

----------
tested on: 188146-221-R-J1-PDC complex spheroid viability; assay: Anticancer human tumor 188146-221-R-J1-PDC cell line growth inhibition [POLQ]; details: second compound 1 µM; first compound 10 µM; hits give low values;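 note: spheroids exposed to compounds for seven days; 100% = DMSO vehicle control viability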
# viability, T/C per record follows
Give the quantity in %, number only.

1) COc1cc2cc(C(=O)CCC(=O)O)sc2cc1OC + Cc1cccc(N(C)C(=O)C2C(O)CCN2c2nc(C)cc(C(F)(F)F)c2C#N)c1 : 92.7

Q: I'd like to know its viability, T/C. The compound in question is C#Cc1c(F)ccc2cc(O)cc(-c3ncc4c(N5CC6CCC(C5)N6)nc(OCC56CCCN5CC(F)C6)nc4c3F)c12 (configuration not stated) + Nc1ccc(C#CCN(C(=O)Cc2ncc(C(F)(F)F)cc2C(F)(F)F)c2ccc(F)cc2)nn1
Result: 80.8

Q: Repeat with C#Cc1c(F)ccc2cc(O)cc(-c3ncc4c(N5CC6CCC(C5)N6)nc(OCC56CCCN5CC(F)C6)nc4c3F)c12 (configuration not stated) + COC1C(OC(N)=O)C(O)C(Oc2ccc3c(O)c(NC(=O)c4ccc(O)c(CC=C(C)C)c4)c(=O)oc3c2C)OC1(C)C
Result: 88.8

Q: Repeat with CC(C)n1c(=O)n(C)c2cnc3cc(F)c(-c4ccc(OCCCN5CCCCC5)nc4)cc3c21 + Nc1ccc(C#CCN(C(=O)Cc2ncc(C(F)(F)F)cc2C(F)(F)F)c2ccc(F)cc2)nn1
Result: 86.9

Q: Repeat with C#Cc1c(F)ccc2cc(O)cc(-c3ncc4c(N5CC6CCC(C5)N6)nc(OCC56CCCN5CC(F)C6)nc4c3F)c12 (configuration not stated) + Cc1cccc(N(C)C(=O)C2C(O)CCN2c2nc(C)cc(C(F)(F)F)c2C#N)c1
Result: 85.5
